# Lookup of reported viability keyed by entry
# assay protocol: H69AR cell proliferation blockers – human, duplicate replicates, primary screen (AID 580);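 also: 100% = mean luminescence of untreated wells and 0% = no signal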
# assay conditions: H69AR lung tumor cells viability, ATP luminescence, 72 h; at 10 µM; active compounds read low
Give the value, in units of %, as a plain number.

molecule "CN1CCN(c2nc3ccccc3c(=O)n2-c2ccccc2)CC1" , viability observed: 86.3

molecule "Cc1ccnc(-n2c(-c3ccco3)nc3ccccc3c2=O)c1" , viability observed: 99.8

molecule "CCCCn1c(O)c(C(CC)=Nc2cccc(C(=O)O)c2)c(=O)[nH]c1=O" , viability observed: 102

molecule "CCOc1cc2[nH]c(=S)n(CCCC(=O)N3CCC4(CC3)OCCO4)c(=O)c2cc1OCC" , viability observed: 89.2

molecule "CN(C)[C@@H]1C(=O)C(C(N)=O)=C(O)[C@@]2(O)C(=O)C3=C(O)c4c(O)cccc4[C@@](C)(O)[C@H]3[C@H](O)[C@@H]12" , viability observed: 103

molecule "O=C(NCc1ccccn1)c1ccccc1Cl" , viability observed: 98

molecule CSc1ccc(CNC2CN3CCC2CC3)cc1 (stereo unspecified) , viability observed: 89.1

molecule "O=C(c1ccc(CS(=O)(=O)c2ccccc2)o1)N1CCC2(CC1)OCCO2" , viability observed: 85

----------
# tested target: Pantothenate synthetase (Mycobacterium tuberculosis (strain ATCC 25618 / H37Rv)) (UniProt P9WIL5)
# Sequence (P9WIL5 whole entry, looked up): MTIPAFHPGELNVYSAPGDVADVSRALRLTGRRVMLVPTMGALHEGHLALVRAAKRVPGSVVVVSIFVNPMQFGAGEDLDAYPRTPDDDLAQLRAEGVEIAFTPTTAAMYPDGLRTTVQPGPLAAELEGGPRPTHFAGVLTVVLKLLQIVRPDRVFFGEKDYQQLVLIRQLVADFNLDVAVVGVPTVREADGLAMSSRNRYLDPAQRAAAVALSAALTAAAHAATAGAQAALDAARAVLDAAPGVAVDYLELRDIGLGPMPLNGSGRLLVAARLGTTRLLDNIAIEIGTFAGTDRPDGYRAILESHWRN
# assay protocol: Coupled enzyme confirmation of inhibitors against recombinant Mtb PanC (AID 375);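 also: 0% = full reaction with vehicle and 100% = no enzyme background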
# assay conditions: coupled enzyme assay; at 10 µM, active compounds read high
# Lookup of reported inhibition keyed by entry
Give the value, in units of %, as a plain number.

Here's what some known entries look like.
CCn1nnc(NC(=O)c2ccccc2Br)n1 : 0
C[N+]1=C2CCCCCN2C(O)(c2ccccc2)C1 (configuration not stated) : 7
CN(C)CCOC(c1ccccc1)c1ccccc1 : 0
Cc1ccc(-c2nn(-c3ccccc3)cc2CN(Cc2ccccc2)C(=O)CCC(=O)O)o1 : 8
COc1ccc(Cn2nnnc2C(c2cc3cc(C)cc(C)c3[nH]c2=O)N2CCOCC2)cc1 (configuration not stated) : 0
C=C(C)Cn1c(CCNC(=O)CC)nc2ccccc21 : 0

compound "Cc1ccc(-c2csc3nnc(SCC(=O)NCc4ccco4)n23)cc1" , inhibition observed: 2

compound COc1cc(C(Nc2ccc3c(c2)OCO3)C(=O)NC2CCCCC2)cc(OC)c1OC (configuration not stated) , inhibition observed: 2

compound "COCCNC(=O)CCCCCN1C(=O)CCC1=O" , inhibition observed: 7

compound "CC(=O)Nc1c(-c2ccc(F)cc2)nc2ccccn12" , inhibition observed: 0

compound "CCOc1ccccc1N1CCN(C(=O)c2ccncc2)CC1" , inhibition observed: 0

compound "Cc1c(C(=O)O)sc2ncn(C)c(=O)c12" , inhibition observed: 0

compound Cc1ccc2c(c1)C(O)(CC(=O)c1ccc3c(c1)OCO3)C(=O)N2 (configuration not stated) , inhibition observed: 0

compound "CC(C)c1nnc(NC(=O)C2CCCCC2)s1" , inhibition observed: 1

----------
# tested target: Pantothenate synthetase (Mycobacterium tuberculosis (strain ATCC 25618 / H37Rv))
# assay protocol: Coupled enzyme confirmation of inhibitors against recombinant Mtb PanC (AID 375);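 also: 0% = full reaction with vehicle and 100% = no enzyme background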
# assay conditions: coupled enzyme assay; at 10 µM, active compounds read high
Returns true if the recorded inhibition is greater than or equal to 4%, and false otherwise.

As a guide, the following entries are already answered.
Cc1ccc(NC(=O)CSc2nnc(CCCCCNC(=O)OC(C)(C)C)o2)c(C)c1 : true
Cc1ccc(-c2cn3nc(C)c(C)nc3n2)cc1 : false
CC(=O)Nc1ccc(S(=O)(=O)Nc2nc3ccccc3nc2N2CCCC2)cc1 : true
Cc1cc(C)n(-c2nc3c(c(=O)[nH]c(=O)n3C)n2Cc2ccc(F)cc2)n1 : false

[Q] Would you say "COc1ccccc1NC(=O)NCCCN1CCN(c2cccc(Cl)c2)CC1" shows inhibition at minimum 4%?
[A] false

[Q] Would you say CCOC(=O)C1=C(C)OC(N)=C(C#N)C1c1ccoc1 (stereo unspecified) shows inhibition at minimum 4%?
[A] false

[Q] Would you say "Cc1cccc(N2CN=c3s/c(=C\c4ccncc4)c(=O)n3C2)c1" shows inhibition at minimum 4%?
[A] true

[Q] Would you say "Cc1cc(NC(=O)CN2CCC(O)(c3cccc(F)c3)CC2)no1" shows inhibition at minimum 4%?
[A] false

[Q] Would you say "COc1ccc(Oc2c(C)oc3cc(OC(=O)N4CCOCC4)ccc3c2=O)cc1" shows inhibition at minimum 4%?
[A] false

[Q] Would you say COc1cccc(C(c2nnnn2CCc2ccccc2)N2CCN(c3ccccc3)CC2)c1OC (stereo unspecified) shows inhibition at minimum 4%?
[A] false

[Q] Would you say "O=C(c1cn(-c2ccccc2)nc1-c1cccs1)N1CCN(c2ccccn2)CC1" shows inhibition at minimum 4%?
[A] false

[Q] Would you say "COc1ccc(C(=O)N2CCN(C3CCCCC3)CC2)c(OC)c1" shows inhibition at minimum 4%?
[A] false

[Q] Would you say "CCn1c(CCC(=O)Nc2nc3c(s2)CCCC3)nc2cc(S(=O)(=O)N(C)C)ccc21" shows inhibition at minimum 4%?
[A] false

[Q] Would you say "Cc1nnc(NC(=O)CSc2nnc(-c3ccc(S(=O)(=O)N4CCCC4)cc3)n2C)s1" shows inhibition at minimum 4%?
[A] true

[Q] Would you say COC(=O)C1=C(C)Nc2ncnn2C1c1ccc(C)o1 (stereo unspecified) shows inhibition at minimum 4%?
[A] false

[Q] Would you say "CCCCc1nc2n[nH]c(N)c2c2c1CCCC2" shows inhibition at minimum 4%?
[A] false

[Q] Would you say "CCCCc1c(O)nc(SCC(=O)c2ccccc2)[nH]c1=O" shows inhibition at minimum 4%?
[A] false

[Q] Would you say CCOc1ccc(NC2c3ccccc3C(=O)N2Cc2ccco2)cc1 (stereo unspecified) shows inhibition at minimum 4%?
[A] false

[Q] Would you say "Cc1ccccc1NS(=O)(=O)c1cc(C(=O)N2CCCC2)ccc1C" shows inhibition at minimum 4%?
[A] false

Where do the numbers come from? From PubChem BioAssay.
